# assay_remarks: Genotoxicity in recA-deficient Escherichia coli assessed as survival at 1 ug/ml after 6 hrs by DNA-repair test
# Format: toxicity, organism-based
# particulars: read-out: Survival
# Lookup of reported viability at 6 h, 1 ug/ml keyed by entry
Write it as a number; the unit % goes unstated.

Some solved cases for reference:
CCCC1OCc2c(C[P+](c3ccccc3)(c3ccccc3)c3ccccc3)c(C[P+](c3ccccc3)(c3ccccc3)c3ccccc3)nc(C)c2O1.[Cl-].[Cl-] (stereo not drawn) ... 87.8
CCCC[P+](CCCC)(CCCC)Cc1nc(C)c2c(c1C[P+](CCCC)(CCCC)CCCC)COC(C)(C)O2.[Cl-].[Cl-] ... 88.6

Sure, the documented viability at 6 h, 1 ug/ml for "Cc1nc(C[P+](c2ccccc2)(c2ccccc2)c2ccccc2)c(C[P+](c2ccccc2)(c2ccccc2)c2ccccc2)c2c1OC(C)(C)OC2.[Cl-].[Cl-]" is 88.8

* * *

# assay_remarks: Genotoxicity in recA-deficient Escherichia coli assessed as survival at 100 ug/ml after 6 hrs by DNA-repair test
# Format: toxicity, organism-based
# particulars: read-out: Survival
The reader will find reported viability at 6 h, 100 ug/ml values listed item by item below.
Answers without a unit are incomplete; give the number and then its unit.

Some solved entries appear below for comparison.
Cc1nc(C[P+](c2ccccc2)(c2ccccc2)c2ccccc2)c(C[P+](c2ccccc2)(c2ccccc2)c2ccccc2)c2c1OC(C)(C)OC2.[Cl-].[Cl-] ... 70.1%
CCCC[P+](CCCC)(CCCC)Cc1nc(C)c2c(c1C[P+](CCCC)(CCCC)CCCC)COC(C)(C)O2.[Cl-].[Cl-] ... 77.8%

Lab book: viability at 6 h, 100 ug/ml of CCCC1OCc2c(C[P+](c3ccccc3)(c3ccccc3)c3ccccc3)c(C[P+](c3ccccc3)(c3ccccc3)c3ccccc3)nc(C)c2O1.[Cl-].[Cl-] (stereo not drawn) noted as 80.4%

* * *

# assay_remarks: Cytotoxicity against HEK293 cells after 72 hrs by MTT assay
# Format: cell-based
# particulars: human, HEK293 cells
property: CC50 at 72 h (mg/L)
Please give a number only; it is taken to be in mg/L.

Lab book: CC50 at 72 h of CCCCCC1OCc2c(C[P+](c3ccccc3)(c3ccccc3)c3ccccc3)c(C[P+](c3ccccc3)(c3ccccc3)c3ccccc3)nc(C)c2O1.[Cl-].[Cl-] (configuration not stated) noted as 1

* * *

# System: Staphylococcus aureus
# assay_remarks: Antibacterial activity against Staphylococcus aureus after 18 to 24 hrs
# Format: functional
Reported MIC values for a set of compounds
The figure you give is taken to be in µg/mL; do not add the unit.

As a guide, the following entries are already answered.
CN[C@H](CC(C)C)C(=O)N[C@H]1C(=O)N[C@@H](CC(N)=O)C(=O)N[C@H]2C(=O)N[C@H]3C(=O)N[C@H](C(=O)N[C@H](C(=O)O)c4cc(O)cc(O)c4-c4cc3ccc4O)[C@H](O)c3ccc(c(Cl)c3)Oc3cc2cc(c3O[C@@H]2O[C@H](CO)[C@@H](O)[C@H](O)[C@H]2O[C@H]2C[C@](C)(N)[C@H](O)[C@H](C)O2)Oc2ccc(cc2Cl)[C@H]1O [VANCOMYCIN] ... 2.5
Cc1nc(C[P+](c2ccccc2)(c2ccccc2)c2ccccc2)c(C[P+](c2ccccc2)(c2ccccc2)c2ccccc2)c2c1OC(C)(C)OC2.[Cl-].[Cl-] ... 5
CCCC1OCc2c(C[P+](c3ccccc3)(c3ccccc3)c3ccccc3)c(C[P+](c3ccccc3)(c3ccccc3)c3ccccc3)nc(C)c2O1.[Cl-].[Cl-] (stereo not drawn) ... 1
Cc1nc(C[P+](c2ccccc2)(c2ccccc2)c2ccccc2)c(C[P+](c2ccccc2)(c2ccccc2)c2ccccc2)c2c1OC(C)(C)OC2.[I-].[I-] ... 10
CCC1OCc2c(C[P+](c3ccccc3)(c3ccccc3)c3ccccc3)c(C[P+](c3ccccc3)(c3ccccc3)c3ccccc3)nc(C)c2O1.[Cl-].[Cl-] (stereo not drawn) ... 10
CCCC[P+](CCCC)(CCCC)Cc1nc(C)c2c(c1C[P+](CCCC)(CCCC)CCCC)COC(C)(C)O2.[Cl-].[Cl-] ... 1.25
CCCCC1OCc2c(C[P+](c3ccccc3)(c3ccccc3)c3ccccc3)c(C[P+](c3ccccc3)(c3ccccc3)c3ccccc3)nc(C)c2O1.[Cl-].[Cl-] (stereo not drawn) ... 5
Cc1nc(C[P+](c2ccccc2)(c2ccccc2)c2ccccc2)c(C[P+](c2ccccc2)(c2ccccc2)c2ccccc2)c2c1OC(C)OC2.[Cl-].[Cl-] (stereo not drawn) ... 12.5

Noted for "Cc1ccc([P+](Cc2nc(C)c3c(c2C[P+](c2ccc(C)cc2)(c2ccc(C)cc2)c2ccc(C)cc2)COC(C)(C)O3)(c2ccc(C)cc2)c2ccc(C)cc2)cc1.[Cl-].[Cl-]" : its MIC reads 1

Quick note, MIC for CCCCCC1OCc2c(C[P+](c3ccccc3)(c3ccccc3)c3ccccc3)c(C[P+](c3ccccc3)(c3ccccc3)c3ccccc3)nc(C)c2O1.[Cl-].[Cl-] (stereo not drawn) landed at 5

// MIC lookup, compound = "CCCC[P+](CCCC)(CCCC)Cc1nc(C)c(O)c(CO)c1C[P+](CCCC)(CCCC)CCCC.Cl.[Cl-].[Cl-]" , result: 1000

Record "Cc1nc(C[P+](c2ccccc2)(c2ccccc2)c2ccccc2)c(C[P+](c2ccccc2)(c2ccccc2)c2ccccc2)c2c1OC(C)(C)OC2.O=[N+]([O-])[O-].O=[N+]([O-])[O-]" . Reported MIC: 100

MIC reported for this compound "Cc1nc(C[P+](c2ccc(F)cc2)(c2ccc(F)cc2)c2ccc(F)cc2)c(C[P+](c2ccc(F)cc2)(c2ccc(F)cc2)c2ccc(F)cc2)c2c1OC(C)(C)OC2.[Cl-].[Cl-]" : 50

// recorded MIC for "Cc1cccc([P+](Cc2nc(C)c3c(c2C[P+](c2cccc(C)c2)(c2cccc(C)c2)c2cccc(C)c2)COC(C)(C)O3)(c2cccc(C)c2)c2cccc(C)c2)c1.[Cl-].[Cl-]" : 1.25

Query CCCCCCCC1OCc2c(C[P+](c3ccccc3)(c3ccccc3)c3ccccc3)c(C[P+](c3ccccc3)(c3ccccc3)c3ccccc3)nc(C)c2O1.[Cl-].[Cl-] (stereo not drawn) yields MIC of 10

# compound "Cc1nc2c(c(CO)c1O)C[P+](c1ccccc1)(c1ccccc1)CC[P+](c1ccccc1)(c1ccccc1)C2.Cl.[Cl-].[Cl-]" ; its MIC = 500

Query "Cc1nc(C[P+](c2ccc(F)cc2)(c2ccc(F)cc2)c2ccc(F)cc2)c(C[P+](c2ccc(F)cc2)(c2ccc(F)cc2)c2ccc(F)cc2)c(CO)c1O.Cl.[Cl-].[Cl-]" yields MIC of 1000

// recorded MIC for "Cc1nc(C[P+](c2cccs2)(c2cccs2)c2cccs2)c(C[P+](c2cccs2)(c2cccs2)c2cccs2)c(CO)c1O.Cl.[Cl-].[Cl-]" : 1000

Short answer for "Cc1nc(C[P+](c2ccccc2)(c2ccccc2)c2ccccc2)c(CO)c2c1OC(C)(C)OC2.[Br-]" : MIC was 10
